# credit: patent US10995101B2

- STUDY_SYSTEM: A2A receptor (Homo sapiens, UniProt P29274)
- Sequence (P29274 whole entry): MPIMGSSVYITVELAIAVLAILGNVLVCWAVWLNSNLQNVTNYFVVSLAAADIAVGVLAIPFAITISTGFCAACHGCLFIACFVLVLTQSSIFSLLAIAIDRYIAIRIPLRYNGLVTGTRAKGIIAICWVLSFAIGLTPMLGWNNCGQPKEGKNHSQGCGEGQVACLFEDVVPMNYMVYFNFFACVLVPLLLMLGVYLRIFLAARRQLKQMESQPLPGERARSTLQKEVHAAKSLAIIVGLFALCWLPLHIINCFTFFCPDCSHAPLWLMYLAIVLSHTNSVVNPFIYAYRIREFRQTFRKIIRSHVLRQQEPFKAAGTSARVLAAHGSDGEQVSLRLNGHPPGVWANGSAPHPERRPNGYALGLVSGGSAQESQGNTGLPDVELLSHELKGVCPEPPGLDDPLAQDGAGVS
- METHOD_NOTES: Inhibition of cAMP production in HEK cells
- Type: cell-based
- CONDITION_PARAMETERS: IC50 (nM) (3 nM NECA as agonist, 0.1% BSA), HEK-293 cells with A2A receptor, 3 nM NECA as agonist, 0.1% BSA
READOUT_LABEL: IC50 (nM)
Field: numeric (nM). Do not append units.

Below, 5 molecules whose answers are already recorded.
[[record]]
molecule = "Nc1nc2c(sc(=O)n2CCN2CCN(c3ccc(O[C@H]4COC[C@@H]4O)cc3F)CC2)c2nc(-c3ccco3)nn12 [Compound 84]"
study_system = "A2A receptor (Homo sapiens, UniProt P29274)"
readout_label = "IC50"
value = 0.1

[[record]]
molecule = "C[S+]([O-])c1ccc(N2CCN(CCn3c(=O)sc4c3nc(N)n3nc(-c5ccco5)nc43)CC2)cc1 (stereo not shown) [Compound 21]"
study_system = "A2A receptor (Homo sapiens, UniProt P29274)"
readout_label = "IC50"
value = 1.6

[[record]]
molecule = "Nc1nc2c(sc(=O)n2CCN2CCN(c3cc(OCC(=O)NCCN4CCOCC4)c(F)cc3F)CC2)c2nc(-c3ccco3)nn12 [Compound 97]"
study_system = "A2A receptor (Homo sapiens, UniProt P29274)"
readout_label = "IC50"
value = 1.1

[[record]]
molecule = "Cn1cnc(COc2cc(N3CCN(CCn4c(=O)sc5c4nc(N)n4nc(-c6ccco6)nc54)CC3)c(F)cc2F)n1 [Compound 68]"
study_system = "A2A receptor (Homo sapiens, UniProt P29274)"
readout_label = "IC50"
value = 14

[[record]]
molecule = "Nc1nc2c(sc(=O)n2CCN2CCN(c3cc(O[C@H]4CCNC4=O)c(F)cc3F)CC2)c2nc(-c3ccco3)nn12 [Compound 95]"
study_system = "A2A receptor (Homo sapiens, UniProt P29274)"
readout_label = "IC50"
value = 0.7


# IC50 (molecule: Nc1nc2c(sc(=O)n2CCN2CCN(c3cccc(OCCO)c3)CC2)c2nc(-c3ccco3)nn12 [Compound 23] ) is 0.6

# IC50 (molecule: NC(=O)COc1cc(N2CCN(CCn3c(=O)sc4c3nc(N)n3nc(-c5ccco5)nc43)CC2)c(F)cc1F [Compound 4] ) is 0.5

# IC50 (molecule: CNCCNC(=O)COc1cc(N2CCN(CCn3c(=O)sc4c3nc(N)n3nc(-c5ccco5)nc43)CC2)c(F)cc1F [Compound 62] ) is 0.5

# IC50 (molecule: CCOC(=O)COc1cc(N2CCN(CCn3c(=O)sc4c3nc(N)n3nc(-c5ccco5)nc43)CC2)c(F)cc1F [Compound 73] ) is 3.4

----------
- METHOD_NOTES: in vitro
- CONDITION_PARAMETERS: human, Caco-2, pH 7.4
READOUT_LABEL: efflux ratio at 120 min, 2 μM
Give the value as a plain number.

Below, 5 molecules whose answers are already recorded.
[[record]]
molecule = "NC(=O)COc1cc(N2CCN(CCn3c(=O)sc4c3nc(N)n3nc(-c5ccco5)nc43)CC2)c(F)cc1F"
value = 123

[[record]]
molecule = "CS(=N)(=O)c1ccc(N2CCN(CCn3c(=O)sc4c3nc(N)n3nc(-c5ccco5)nc43)CC2)c(F)c1 (stereo not drawn)"
value = 149

[[record]]
molecule = "CN(C)CCNC(=O)c1ccc(N2CCN(CCn3c(=O)sc4c3nc(N)n3nc(-c5ccco5)nc43)CC2)c(F)c1"
value = 329

[[record]]
molecule = "CN(CCNC(=O)c1ccc(N2CCN(CCn3c(=O)sc4c3nc(N)n3nc(-c5ccco5)nc43)CC2)c(F)c1)C1COC1"
value = 201

[[record]]
molecule = "CS(=O)(=O)CCOc1cc(N2CCN(CCn3c(=O)sc4c3nc(N)n3nc(-c5ccco5)nc43)CC2)c(F)cc1F"
value = 43


# efflux ratio at 120 min, 2 μM (molecule: `Nc1nc2c(sc(=O)n2CCN2CCN(c3ccc(C(=O)N4CC[S+]([O-])CC4)cc3F)CC2)c2nc(-c3ccco3)nn12` ) is 127

# efflux ratio at 120 min, 2 μM (molecule: `CC(C)[C@H](N)C(=O)NCCOc1ccc(N2CCN(CCn3c(=O)sc4c3nc(N)n3nc(-c5ccco5)nc43)CC2)c(F)c1` ) is 21
